Quick record of log10(IC50) values for β-1,3-glucan synthase from Candida albicans (Candida albicans).
In plain terms, each number is the log10 of measured IC50 in µM.

N[C@H]1CCN(C(=O)CN(CC(=O)NCc2cc(C(F)(F)F)cc(C(F)(F)F)c2)c2cccc(Oc3ccccc3)c2)C1 | 0.43
N[C@H]1CCN(C(=O)CN(C(=O)/C=C/c2ccccc2)c2ccc(-c3cccc(OC(F)(F)F)c3)cc2)C1 | 0.93
N[C@H]1CCN(C(=O)CN(CC(=O)NCc2cccc(Cl)c2)c2ccccc2Oc2ccccc2)C1 | 1.08
N[C@H]1CCN(C(=O)CN(CC(=O)NCc2cc(F)cc(C(F)(F)F)c2)c2ccc(Oc3ccccc3)cc2)C1 | 0.73

Q) Form field: reported log10(IC50) of `N[C@H]1CCN(C(=O)CN(C(=O)/C=C/c2ccccc2)c2ccc(Oc3ccccc3)cc2)C1`
A) 1.53
